The origin of these recorded values is patent US20050282739A1.

Target: T1, human melanocortin-4 receptor (hMC4-R) (human, UniProt P32245 1-332)
T1 construct: whole, on cells; membranes prepared from hMC4-R cells were used; also called Melanocortin Receptor 4
T1 sequence (P32245 whole entry): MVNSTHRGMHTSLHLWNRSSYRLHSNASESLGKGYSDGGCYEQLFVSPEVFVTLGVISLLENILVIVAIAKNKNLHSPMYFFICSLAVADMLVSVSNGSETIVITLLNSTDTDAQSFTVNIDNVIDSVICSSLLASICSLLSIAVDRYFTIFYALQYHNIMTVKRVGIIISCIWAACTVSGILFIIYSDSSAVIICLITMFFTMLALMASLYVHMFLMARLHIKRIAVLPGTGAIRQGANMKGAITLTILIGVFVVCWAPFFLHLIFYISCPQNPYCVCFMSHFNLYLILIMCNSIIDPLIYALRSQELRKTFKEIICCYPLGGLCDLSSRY
Test: 125I-NDP-α-MSH competition, hMC4-R membranes
Square brackets hold non-standard residues; d marks the D form. Nle = CCCC[C@H](N)C(=O)O
MEASURED_METRIC: % Inhibition at 1 µM (%)

a: Ac-SYS[Nle]EHCFRWGKPV-NH2 (also: oxorhenium(V) N3S1 chelate at Cys7) [metallopeptide 1-8]
b: Ac-SYSC[Nle]EHFRWGKPV-NH2 (also: oxorhenium(V) N3S1 chelate at Cys4) [metallopeptide 1-11]
Task: Between a and b , which one shows the larger % Inhibition at 1 µM value? Give the chosen item's label as your response.
Output: b

1: Ac-SYS[Nle]EHFRWGCKPV-NH2 (also: oxorhenium(V) N3S1 chelate at Cys11) [metallopeptide 1-4]
2: Ac-SYCS[Nle]EHFRWGKPV-NH2 (also: oxorhenium(V) N3S1 chelate at Cys3) [metallopeptide 1-12]
Task: Which is greater in % Inhibition at 1 µM, the first item 1 or the second item 2 ? State your choice using its label.
Output: 2
